Values from patent US20250163164A1

internalization Top (MFI), CHO-K1/H_IL-13RA2 cells by entry:
Target: T1, human interleukin 13 receptor subunit alpha 2 (IL-13RA2) (human, UniProt Q14627 27-380)
T1 sequence (looked up): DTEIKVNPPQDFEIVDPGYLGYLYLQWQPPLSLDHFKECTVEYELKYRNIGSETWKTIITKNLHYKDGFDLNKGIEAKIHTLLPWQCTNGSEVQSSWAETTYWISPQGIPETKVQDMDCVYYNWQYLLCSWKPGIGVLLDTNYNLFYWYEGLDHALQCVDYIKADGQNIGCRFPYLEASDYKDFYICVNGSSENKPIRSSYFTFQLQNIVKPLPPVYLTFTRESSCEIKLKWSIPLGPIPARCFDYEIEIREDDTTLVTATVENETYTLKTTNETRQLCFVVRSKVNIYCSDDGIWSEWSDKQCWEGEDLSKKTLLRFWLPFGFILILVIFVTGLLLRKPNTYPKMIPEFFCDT
Test: cell-based or functional assay
Output spec: scalar in MFI, unitless text.

Incoming: Fill in: internalization Top (MFI), CHO-K1/H_IL-13RA2 cells of xi73A11E2 hIgG1 (antibody, V domains shown) VH: EVKLVESGGGLVKPGGSLKLSCAASGFTFSSYGMSWVRQTPEKRLEWVATISGGGSYTYYPDSVKGRFTISRDNARNNLYLQMNSLRSEDTALYYCARRDLRSAMDYWGQGTSVTVSS VL: DIVMTQSQKFMSTSVGDRVSVTCKASQNVDINVAWYQQKPGQSPKALIYSASYRYSGVPDRFTGSGSGTDFTLTISNVQSEDLAEFFCQQYNSYPLTFGGGTKLEIK is ___
Outgoing: 17900

Incoming: Given xi51G2B3 hIgG1 (antibody, V domains shown) VH: QVQLQQSGPELVKPGASVKISCKASGYAFSDSWMNWVKQRPGQGLEWIGRIYPGDGDTNYNGKFKGKATLTADKSSNTAYMQLSSLTSVDSAVYFCARSWNGSPWFPYWGQGTLVTVSA VL: DVLMTQTPLSLPVSLGDQASISCRSSQTIAHRNGNTYLEWYLQKPGQSPKLLLYKVSNRFSGVPDRFSGSGSGTDFTLKISRVEAEDLGVYYCFQGSHVTWTFGGGTKLEIK , state its recorded internalization Top (MFI), CHO-K1/H_IL-13RA2 cells.
Outgoing: 17100
